- assay_comment: Plasma pharmacokinetics after intraperitoneal injection in mouse (UPLC-MS/MS)
- Assay type: in vivo
- test_conditions: male, ICR, mouse, plasma, ip, 10 mg/kg, IP 10 mg/kg, 1 h; read-out: Plasma concentration, Mean
- Method: Positive control drug 4-butyl-α-agarofuran preparation (BAF) and Compound 2 preparation were administered intraperitoneally at a dose of 10 mg/kg/10 ml (calculated according to the crude drug), and a suspension was prepared by ultrasonic grinding with double distilled water. Male ICR mice, with a weight of 21-24 g, were purchased from SPF (Beijing) Biotechnology Co., Ltd. […]
Assignment: determine reported concentration at 1 h for the given compounds.
Expressed in ng/mL, but write only the number.

// field: concentration at 1 h; key: `CC1(C)O[C@]23C[C@H]1CC[C@]2(C)CCC=C3CCCC(F)(F)F` ; value = 32.5

// field: concentration at 1 h; key: CCCCC1=CCC[C@@]2(C)CC[C@@H]3C[C@]12OC3(C)C [BAF, 4-butyl-α-agarofuran, reference compound] ; value = 33.7
